B1: ZNF8 (parent)
chain: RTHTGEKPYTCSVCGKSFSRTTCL

variants of: B1; experiment: protein stability index of a GFP-peptide fusion (GPS, HEK-293T) (PSI 1-6); higher = more stable; settings: c terminus: a fixed tail appended;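 note: lentivirally expressed fusions sorted by FACS into six bins by GFP to DsRed ratio, PSI derived from sequencing read proportions per bin multiplied by bin number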
protein stability index of 3 or higher: Yes. Under 3: No.

{"SEQUENCE_VARIANT": "T22P", "CLASSIFICATION": "No"}
{"SEQUENCE_VARIANT": "G5S", "CLASSIFICATION": "Yes"}
{"SEQUENCE_VARIANT": "K7I", "CLASSIFICATION": "No"}
{"SEQUENCE_VARIANT": "Y9G", "CLASSIFICATION": "No"}
{"SEQUENCE_VARIANT": "C11G", "CLASSIFICATION": "No"}
{"SEQUENCE_VARIANT": "H3K", "CLASSIFICATION": "No"}
{"SEQUENCE_VARIANT": "S19F", "CLASSIFICATION": "No"}
{"SEQUENCE_VARIANT": "T10I", "CLASSIFICATION": "No"}
{"SEQUENCE_VARIANT": "S19D", "CLASSIFICATION": "No"}
{"SEQUENCE_VARIANT": "R1C", "CLASSIFICATION": "Yes"}
{"SEQUENCE_VARIANT": "T22R", "CLASSIFICATION": "No"}
